- target desc: the molecule itself
- measurement notes: AUC; sedimentation velocity, c(s) size distribution (SEDFIT), 50,000 rpm, 20 °C, 10 mM Hepes pH 7.4, 137 mM NaCl, concentration series 0.2 – 3 mg/ml; KD of dimer to monomers from integration of the c(s) peaks
Assignment: determine reported percent dimer for the given proteins.

Consider the protein shown here: Complement Factor H SCR-16/18H fragment (domain or fragment, N-linked glycan chains on SCR-17 and SCR-18) GLPCKSPPEISHGVVAHMSDSYQYGEEVTYKCFEGFGIDGPAIAKCLGEKWSHPPSCIKTDCLSLPSFENAIPMGEKKDVYKAGEQVTYTCATYYKMDGASNVTCINSRWTGRPTCRDTSCVNPPTVQNAYIVSRQMSKYPSGERVRYQCRSPYEMFGDEEVMCLNGNWTEPPQCKDST What is its recorded percent dimer? 60%

And the next one, Complement Factor H SCR-18H fragment (domain or fragment, also: N-linked glycan chain, site not given here) TSCVNPPTVQNAYIVSRQMSKYPSGERVRYQCRSPYEMFGDEEVMCLNGNWTEPPQCKDST ? ~50%
